test system: Hepatitis B virus; test: Antiviral activity against HBV infected in human HepG2 cells expressing hNTCP-C4 assessed as viral envelope surface protein secretion treated for 16 hrs followed by compound washout measured after 12 days by ELISA; format: functional, organism-based
Label Condition met when IC50 is strictly below 50 µM; at or above that, label Condition not met.

| molecule | testTarget | labelValue |
| --- | --- | --- |
| CCC(=O)Cc1cc(=O)c2c(C)cc(O)cc2o1 | Hepatitis B virus | Condition not met |

Quick check: does CCC(C)CC(C)C(=O)OC1(C)C(=O)Cc2cc(O)c3c(c2C1=O)C[C@@H](O)C[C@H]3C (stereo not given in full) have IC50 under 50 µM?
Condition not met

Quick check: does CCC(C)CC(C)C(=O)OC1(C)C(=O)c2c(cc(O)c3c2C[C@@H](O)C[C@H]3C)C(C)(O)C1=O (stereo not given in full) have IC50 under 50 µM?
Condition met

Quick check: does CCC(=O)CC1(O)CC(=O)c2c(C)cc(O)cc2O1 (stereo not given) have IC50 under 50 µM?
Condition not met
